# Tested on: Acinetobacter baumannii
# Test: Antibacterial activity against 98 member subset of carbapenem resistant Acinetobacter baumannii assessed as assessed as inhibition of bacterial growth by microdilution method
# Format: functional
Answer each item with its documented MIC90.

Give one value of MIC90 per listed molecule.
1. C[C@H]1[C@H](NC(=O)/C(=N\OC(C)(C)C(=O)O)c2csc(N)n2)C(=O)N1S(=O)(=O)O [AZTREONAM]
2. CC(C)(O/N=C(\C(=O)N[C@@H]1C(=O)N2C(C(=O)[O-])=C(C[n+]3ccccc3)CS[C@H]12)c1csc(N)n1)C(=O)O [CEFTAZIDIME]
3. C[C@@H](O)[C@H]1C(=O)N2C(C(=O)O)=C(S[C@@H]3CN[C@H](C(=O)N(C)C)C3)[C@H](C)[C@H]12 [MEROPENEM]
4. CC(C)(O/N=C(\C(=O)N[C@H]1CN2CC(C(=O)NCCN3C(=O)c4cc(O)c(O)cc4C3=O)=C(C(=O)O)N2C1=O)c1nc(N)sc1Cl)C(=O)O

Resp:
1: > 32 µg/mL; 2: > 64 µg/mL; 3: > 64 µg/mL; 4: > 16 µg/mL
